Listed here: items and their measured IC50.
- measured_target: WRN [UniPro: Q14191 (WRN_HUMAN), N500-C946] (Homo sapiens (Human), UniProt Q14191)
- Sequence (Q14191 500-946): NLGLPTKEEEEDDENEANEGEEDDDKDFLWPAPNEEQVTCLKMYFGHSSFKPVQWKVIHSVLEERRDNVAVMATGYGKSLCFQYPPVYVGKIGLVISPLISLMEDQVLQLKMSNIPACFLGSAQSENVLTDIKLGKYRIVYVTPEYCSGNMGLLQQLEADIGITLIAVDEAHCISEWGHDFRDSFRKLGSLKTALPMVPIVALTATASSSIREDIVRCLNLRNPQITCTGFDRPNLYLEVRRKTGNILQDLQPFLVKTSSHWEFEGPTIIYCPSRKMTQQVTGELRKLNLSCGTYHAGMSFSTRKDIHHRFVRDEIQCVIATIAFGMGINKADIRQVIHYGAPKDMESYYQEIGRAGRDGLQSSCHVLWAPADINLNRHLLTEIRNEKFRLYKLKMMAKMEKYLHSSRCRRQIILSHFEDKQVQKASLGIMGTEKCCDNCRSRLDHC
- protocol_summary: WRN ATPase assay (ADP-Glo)
- Format: biochemical
- assay_context: WRN enzymatic activity assay

CCc1c(N2CCN(C(=O)CNc3nc(=O)c4ccccc4[nH]3)CC2)c(=O)n2nc(C3=CCOCC3)nc2n1CC(=O)Nc1ccc(C(F)(F)F)cc1Cl [Example 208] = < 100 nM
CCc1c(N2CCN(C(=O)CNC(=O)c3ccc(F)c(NC)c3)CC2)c(=O)n2nc(C3=CCOCC3)nc2n1CC(=O)Nc1ccc(C(F)(F)F)cc1Cl [Example 285] = < 100 nM
CCc1c(N2CCN(C(=O)c3cc4ccnn4cn3)CC2)c(=O)n2nc(C3=CCOCC3)nc2n1CC(=O)Nc1ccc(C(F)(F)F)cc1Cl [Example 296] = 100 to 1000 nM
CCc1c(N2CCN(C(=O)CNC(=O)Cc3ccc(F)cc3)CC2)c(=O)n2nc(C3=CCOCC3)nc2n1CC(=O)Nc1ccc(C(F)(F)F)cc1Cl [Example 177] = < 100 nM

Please examine the following record next.
Q: Which value of IC50 has been reported for CCc1c(N2CCN(C(=O)c3ccc[nH]c3=O)CC2)c(=O)n2nc(C3=CCOCC3)nc2n1CC(=O)Nc1ccc(C(F)(F)F)cc1Cl [Example 65] in the records?
A: 100 to 1000 nM
